Biological target: T1, mouse matriptase-2 ECD protein his tag (mouse, UniProt Q9DBI0 80-811)
T1 construct: aa 80-811 of Q9DBI0 with C-terminal linker and His tag; also called mouse MTP-2 ECD; moMTP-2
T1 sequence: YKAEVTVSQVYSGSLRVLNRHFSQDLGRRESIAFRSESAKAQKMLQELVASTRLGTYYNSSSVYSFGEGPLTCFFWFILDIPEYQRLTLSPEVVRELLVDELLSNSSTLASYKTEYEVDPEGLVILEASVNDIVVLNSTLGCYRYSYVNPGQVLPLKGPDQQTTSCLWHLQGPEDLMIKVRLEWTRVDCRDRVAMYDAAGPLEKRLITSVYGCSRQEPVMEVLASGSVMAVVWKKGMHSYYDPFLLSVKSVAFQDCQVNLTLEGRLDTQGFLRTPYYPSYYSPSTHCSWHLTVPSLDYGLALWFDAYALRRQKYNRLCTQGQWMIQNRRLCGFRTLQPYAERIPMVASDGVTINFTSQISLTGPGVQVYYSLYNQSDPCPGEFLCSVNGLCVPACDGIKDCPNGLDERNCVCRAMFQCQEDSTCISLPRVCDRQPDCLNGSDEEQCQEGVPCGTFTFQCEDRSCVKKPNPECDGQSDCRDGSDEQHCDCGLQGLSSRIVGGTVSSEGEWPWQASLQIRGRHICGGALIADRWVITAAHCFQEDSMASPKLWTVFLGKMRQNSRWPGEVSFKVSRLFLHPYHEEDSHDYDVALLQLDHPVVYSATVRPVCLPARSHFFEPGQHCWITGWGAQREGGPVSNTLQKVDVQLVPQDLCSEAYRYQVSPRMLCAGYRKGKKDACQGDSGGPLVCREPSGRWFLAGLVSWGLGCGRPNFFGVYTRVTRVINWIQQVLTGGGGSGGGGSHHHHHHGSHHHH
Experiment: SPR (Biacore 8K), huIgG4PE captured on anti-human Fc, MTP-2 ECD as analyte, 1:1 fit
Protocol: Off-rate screening was performed by surface plasmon resonance (SPR), using a Biacore 8K system (GE Healthcare). Anti-human Fc mix (˜1000 RU) were immobilised in both active and reference channels in HBS-P+ buffer (GE BR100671) pH 7.4. […] MTP-2 ECD protein analytes were then injected (at 100, 25, 6.25, 1.56 and 0 nM concentrations) for 120 sec (association time) at 30 μl/min and dissociation monitored for 600 sec. […]
metric-name: Binding Late top conc
Returns: the value as a bare number; no unit string appended.

Worked cases, answers included:
Prompt: What value of Binding Late top conc has been reported for the following binder? NORI-008 (antibody, human IgG4 S228P, kappa, V domains shown, human IgG4PE, kappa, in the in vitro assays; a mouse IgG1 format was used in one in vivo study only; also called NORI-008 hulgG4PE; NORI-008 IgG) VH: QVQLQESGPGLVKPSETLSLTCSVSGGSVSSGRYYWTWIRQPPGKGLEWIGYISNSGNTNYNPSLKSRVTISLDTSKKQFSLSLSAVTAADTAVYYCARGFIYDYWFDPWGQGSLVTVSS VL: DSQMTQSPSSLSASVGDRVTITCQASQDIDNYLNWYQQRPGKAPKLLIYDASKLETGVPSRFSGSGSGTDFTFTISSLQPEDFATYYCQQYGNLPITFGQGTRLDIKR
Completion: 39.2

Prompt: Another binder to check: NORI-014 (antibody, human IgG4 S228P, lambda, V domains shown, human IgG4PE, lambda) VH: EVQLVESGGGLIQAGRSLRLSCAASGFTFDEHVMYWVRQIPGKGLEWISSITWKSDIIAYADSVKGRFTISRDNAKNALYLQMNSLRAEDTALYYCAREKDGDFYYYYFAMDVWGQGTTVTVSS VL: QSALTQPPSASGSPGQSVTLSCTGTSSDVGYYNYVSWYLQHPGKAPKLMIYEVSKRPSGVPDRFSGSKSANTASLTVSGLQAEDEADYYCSSYAGSNKVVFGGGTKVTVLG
Completion: 5.4

// below: Binding Late top conc requested for another binder
Prompt: Requested read-out: Binding Late top conc. Entry: NORI-009 (antibody, human IgG4 S228P, lambda, V domains shown, human IgG4PE, lambda) VH: EVQLVESGGGLVQPGRSLRLSCAASGFTFNDHVIYWVRQVPGKGLEWVSTISWNSDTIAYADSVKGRFTISRDNAKNALYLQMNSLRTEDTALYYCAREKDGDFYYDYFAMDVWGQGTTVTVSS VL: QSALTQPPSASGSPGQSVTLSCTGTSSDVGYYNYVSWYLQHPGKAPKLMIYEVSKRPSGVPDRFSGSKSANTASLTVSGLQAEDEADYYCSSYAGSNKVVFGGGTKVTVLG
Completion: 5
